- Protocol: Stability of PARP inhibiting (olaparib) conjugates in plasma and tumor tissue, release of olaparib
- Type: in vitro ADME
- Setup conditions: tumor tissue; Table 3; read-out: Tumor t1/2 (converted)
Observable: half-life (h)

# Entry smiles, Observable, Reported result
records = [
    ("CC(C)c1cc(-c2nnc(O)n2-c2ccc(CN3CCN(CCC(C)(C)SSCCOC(=O)N(CCN(C)C)Cn4nc(Cc5ccc(F)c(C(=O)N6CCN(C(=O)C7CC7)CC6)c5)c5ccccc5c4=O)CC3)cc2)c(O)cc1O", "half-life", 4),
    ("CC(C)c1cc(-c2nnc(O)n2-c2ccc(CN3CCN(CCC(C)(C)SSc4ccc(COC(=O)N(CCN(C)C)Cn5nc(Cc6ccc(F)c(C(=O)N7CCN(C(=O)C8CC8)CC7)c6)c6ccccc6c5=O)cc4)CC3)cc2)c(O)cc1O", "half-life", 24),
]
